- assayed.target: SYK (Homo sapiens)
- measurement.description: SYK inhibition assay: SYK-mediated phosphorylation of FAM-labeled substrate (Caliper microfluidic)
- Format: biochemical
- test.conditions: read-out: SYK Inhibition (pIC50) (converted)
IC50 overview
Express your answer in nM, writing the number without its unit.

Answer with reported IC50 of N[C@H]1CCCC[C@H]1Nc1nc(-c2cnn(C3CC3)c2)c2c(c1F)CNC2=O
7.94

----------
- assayed.target: SYK (Homo sapiens, UniProt P43405)
- measurement.description: SYK inhibition assay: SYK-mediated phosphorylation of FAM-labeled substrate (Caliper microfluidic)
- Assay type: biochemical
- test.conditions: read-out: SYK Inhibition (pIC50) (converted)
measurement.type: IC50 (nM)
Express your answer in nM, writing the number without its unit.

Worked examples, 3 molecules total:
Answer with reported IC50 of CC(C)C[C@@H](Nc1nc(-c2ccoc2)c2c(c1F)CNC2=O)C(N)=O
251

Answer with reported IC50 of COCCn1cc(-c2nc(N[C@@H]3CCCC[C@@H]3N)nc3c2C(=O)NC3)cn1
2000

Answer with reported IC50 of Cc1ccc(-c2nc(N[C@@H]3CCCC[C@@H]3N)c(F)c3c2C(=O)NC3)s1
2.51

Could you now look at the following molecule, please?
Answer with reported IC50 of N[C@H]1COCC[C@H]1Nc1nc(-c2cnn3ccccc23)c2c(c1F)CNC2=O
12.6

----------
- assayed.target: SYK (Homo sapiens)
- measurement.description: SYK inhibition assay: SYK-mediated phosphorylation of FAM-labeled substrate (Caliper microfluidic)
- Format: biochemical
- test.conditions: read-out: SYK Inhibition (pIC50) (converted)
Where a name gives a salt, the structure may show the parent alone.
Just a reminder that ties go to not met: only IC50 strictly below 80 nM counts as met.

Would you kindly verify if IC50 of Cn1cc(-c2nc(N[C@@H]3CC(F)(F)C[C@@H]3N)c(F)c3c2C(=O)NC3)cn1 (relative stereo) is strictly less than 80 nM?
not met

Would you kindly verify if IC50 of CS(=O)(=O)c1cccc(Nc2nc(N[C@@H]3CCC[C@@H]3N)cc3c2C(=O)NC3)c1 [Example 34, (HCl salt)] is strictly less than 80 nM?
not met

Could you now look at the following molecule, please?
Would you kindly verify if IC50 of COC[C@H](N)CNc1cc2c(c(-c3cnn(C)c3)n1)C(=O)NC2 is strictly less than 80 nM?
not met

----------
IC50 overview
- assayed.target: SYK (Homo sapiens, UniProt P43405)
- measurement.description: SYK inhibition assay: SYK-mediated phosphorylation of FAM-labeled substrate (Caliper microfluidic)
- Assay type: biochemical
- test.conditions: read-out: SYK Inhibition (pIC50) (converted)
Express your answer in nM, writing the number without its unit.

Worked examples, 7 compounds total:
Answer with reported IC50 of Cn1cc(-c2nc(N[C@@H]3CCCC[C@@H]3N)cc3c2C(=O)NC3)cn1
31.6

Answer with reported IC50 of Cc1cccc(Nc2nc(N[C@@H]3CCCC[C@@H]3N)c(-c3ccnn3C)c3c2C(=O)NC3)c1
20

Answer with reported IC50 of CS(=O)(=O)c1cccc(Nc2nc(N[C@@H]3CCCC[C@@H]3N)cc3c2C(=O)NC3)c1
50.1

Answer with reported IC50 of N[C@H]1COCC[C@H]1Nc1nc(-n2cnc(C(F)(F)F)c2)c2c(c1F)CNC2=O
10000

Answer with reported IC50 of Cc1cccc(Nc2nc(NCCN)nc3c2C(=O)NC3)c1
251

Answer with reported IC50 of COC[C@H](N)CNc1nc(Nc2cccc(C)c2)c2c(c1C#N)CNC2=O
3.98

Answer with reported IC50 of Cn1cc(-c2nc(N[C@@H]3CCOC[C@@H]3N)c(F)c3c2C(=O)NC3)cn1
10

Others:
Answer with reported IC50 of Cc1cccc(Nc2nc(N[C@@H]3CCCC[C@@H]3N)nc3c2C(=O)NC32CC2)c1
3160
